- Test system: HOP-62 NSCLC
- Method: NCI-60 one-dose screen, 48 h (100 = growth as untreated, 0 = no growth, -100 = all killed)
- Recorded Conditions: 10 µM
Compounds without any hit were thinned out: in the full panel of roughly 83,000, 20% have a hit.
Measurement Name: growth (%)
# output: bare number, implied unit %

Consider the following illustrative entries.
>>> numeric_result("CC(=O)N1C/C(=C/c2ccc(Cl)cc2)C(=O)/C(=C/c2ccc(Cl)cc2)C1")
-29.7
>>> numeric_result("N=C(N)c1ccc(-c2ccc(-c3ccccc3)o2)nc1")
91.8
>>> numeric_result("C#Cc1ccc(-n2c(/C=C/c3ccc(O)c(OC)c3)nc3ncccc3c2=O)cc1")
95.3

IN: Form field - read-out: growth; system: HOP-62 NSCLC; submitted item: O=C1/C(=C\c2ccc(Cl)cc2)CN(C(=S)Nc2ccccc2)C/C1=C\c1ccc(Cl)cc1
OUT: -55.4

IN: Same lookup for COc1ccc(/C=C/C(=O)Nc2ccc(-c3nc4ccc(OC)cc4s3)cc2)cc1 , please.
OUT: 101

###

Reported growth is given for each of the following molecules.
- Tested on: NCI-H226 lung
- Method: NCI-60 one-dose screen, 48 h (100 = growth as untreated, 0 = no growth, -100 = all killed)
- Recorded Conditions: 10 µM
The panel holds about 83,000 compounds, 20% with a hit somewhere; the sample as a whole holds those more often.
# output: bare number, implied unit %

Consider the following illustrative entries.
>>> numeric_result("CSc1nc(=O)n(Cc2ccc(F)cc2)c(=O)n1Cc1ccc(C)cc1")
101
>>> numeric_result("CC(=O)C1CCC2C3CC(F)C4=CC(=O)CCC4(C)C3C(O)CC12C (stereo not given)")
85.9
>>> numeric_result("FC(F)(F)c1ccc(-c2cnc(Cl)nc2N2CCC3(CC2)OCCO3)cc1")
94.4

IN: Entry under review: O=C1/C(=C\c2cn(C(=O)c3ccc(Cl)cc3)c3ccccc23)c2ccccc2N1C(=O)c1ccc(Cl)cc1 . Reported growth?
OUT: 89.4

IN: Same lookup for COc1ccc(-c2ccc3cc(C(=O)Nc4ccc(O)c(C(=O)/C=C/c5cc(OC)c(OC)c(OC)c5)c4)ccc3c2)cc1 , please.
OUT: 82.5

###

Reported growth is given for each of the following molecules.
- System: SK-OV-3 ovarian
- Method: NCI-60 one-dose screen, 48 h (100 = growth as untreated, 0 = no growth, -100 = all killed)
- Recorded Conditions: 10 µM
Compounds without any hit were thinned out: in the full panel of roughly 83,000, 20% have a hit.
# output: bare number, implied unit %

IN: Entry under review: COc1ccc2c(c1)O/C(=C\c1ccc([N+](=O)[O-])o1)C2=O . Reported growth?
OUT: 67.6

IN: Same lookup for COc1cc(-c2cc(/C=C/C(=O)c3ccc(Cl)c(Cl)c3)[nH]n2)cc(OC)c1OC , please.
OUT: 97.3

IN: Same lookup for CCCCCCCC(C)NCCO (stereo not drawn) , please.
OUT: 93.6

###

- System: M14 melanoma
- Method: NCI-60 one-dose screen, 48 h (100 = growth as untreated, 0 = no growth, -100 = all killed)
- Recorded Conditions: 10 µM
Compounds without any hit were thinned out: in the full panel of roughly 83,000, 20% have a hit.
Reported growth is given for each of the following compounds.
# output: bare number, implied unit %

Consider the following illustrative entries.
>>> numeric_result("O=C(Nc1nc2ccccc2s1)Nc1ccc([N+](=O)[O-])cc1Cl")
79.7
>>> numeric_result("COc1cc(/C=N/NC(=O)c2ccccc2Nc2ccnc(C(F)(F)F)c2)ccc1O")
89.7
>>> numeric_result("CN(C)CCN1C(=O)c2cccc3c(-c4ccc5ncn(C6CCCCC6)c5c4)ccc(c23)C1=O")
30.2
>>> numeric_result("C#Cc1ccc(-n2c(/C=C/c3ccc(O)c(OC)c3)nc3ncccc3c2=O)cc1")
101
>>> numeric_result("CCOC(=O)CCC(NC(=O)c1ccc(N)cc1)C(=O)OCC (stereo unspecified)")
91.3

IN: Form field - read-out: growth; system: M14 melanoma; submitted item: CSCCCNC(=O)c1ccc2c(c1)/C(=C/c1[nH]c(C)cc1C)C(=O)N2
OUT: 8.79
